From: paper PMC9948168

Reported inhibition at 10 µM values are given for each entry in this list.
# Test system: SN12C
# test method notes: NCI-60 one-dose screening
# Format: cell-based
# condition label: Homo sapiens, Renal Cancer, read-out: GI (%)
// return numeric value only (unit: %, not printed)

Provide only the value of recorded inhibition at 10 µM for COc1cc(/C=C2/C(=O)Nc3cc(Cl)ccc32)ccc1OCc1ccc(F)cc1
4.13

Provide only the value of recorded inhibition at 10 µM for COc1cc(C=C2C(=O)Nc3cc(Cl)ccc32)ccc1OCc1ccc(Cl)cc1 (mixture of isomers)
1.62

Provide only the value of recorded inhibition at 10 µM for COc1ccc(COc2ccc(/C=C3/C(=O)Nc4ccccc43)cc2OC)cc1
0.36

Provide only the value of recorded inhibition at 10 µM for COc1cc(/C=C2/C(=O)Nc3cc(Cl)ccc32)ccc1O
15.2
